systemName: Avi-KRAS WT (1-169) GppNHp/RAF1 RBD-3xFLAG (52-151) (Homo sapiens, UniProt P01116)
Construct: Avi-KRAS WT (1-169)
Sequence (P01116 1-169 isoform P01116-2): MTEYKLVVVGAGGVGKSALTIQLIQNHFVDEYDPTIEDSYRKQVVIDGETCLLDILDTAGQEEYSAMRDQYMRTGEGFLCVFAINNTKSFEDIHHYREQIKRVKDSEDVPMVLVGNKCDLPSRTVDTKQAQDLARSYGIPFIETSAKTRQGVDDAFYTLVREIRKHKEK
protocolNotes: Raf1-KRAS WT-GppNHP disruption HTRF assay (Biological Example 1)
Type: binding
conditionSet: KRAS WT, GppNHp-loaded; class symbols
pIC50: −log10 of the molar value.
What pIC50 was measured for each of the following?

# input Report pIC50 on Avi-KRAS WT (1-169) GppNHp/RAF1 RBD-3xFLAG (52-151) (Homo sapiens, UniProt P01116) for this entry: CC(C)C(=O)N1CC[C@H](N(C)c2nc(OC[C@@]34CCCN3C[C@H](F)C4)nc3c(F)c(-c4ccc(F)c5sc(N)c(C#N)c45)c(C(F)(F)F)cc23)C1 (atropisomer, axis not shown) [Compound 786]
# output 6.00 to 7.00

# input Report pIC50 on Avi-KRAS WT (1-169) GppNHp/RAF1 RBD-3xFLAG (52-151) (Homo sapiens, UniProt P01116) for this entry: CCN(c1nc(OC[C@@]23CCCN2C[C@H](F)C3)nc2c(F)c(-c3ccc(F)c4sc(N)c(C#N)c34)c(C(F)(F)F)cc12)[C@H]1CCN(C(=O)[C@H](C)CO)C1 (atropisomer, axis not shown) [Compound 746]
# output > 7.00

----------
What IC50 was measured for each of the following?
systemName: Avi-KRAS WT (1-169) GppNHp/RAF1 RBD-3xFLAG (52-151) (Homo sapiens)
Construct: Avi-KRAS WT (1-169)
protocolNotes: Raf1-KRAS WT-GppNHP disruption HTRF assay (Biological Example 1)
Assay type: binding
conditionSet: KRAS WT, GppNHp-loaded; Table 11

# input Annotate the molecule CN(c1nc(OC[C@@]23CCCN2C[C@H](F)C3)nc2c(F)c(-c3ccc(F)c4sc(N)c(C#N)c34)c(C(F)(F)F)cc12)[C@H]1CCS(=O)(=O)C1 (single isomer, unassigned) [Compound 221] with its measured IC50.
# output 100 to 1000 nM

# input Annotate the molecule N#Cc1c(N)sc2c(F)ccc(-c3c(C(F)(F)F)cc4c(N5CCC(F)(F)CC5)nc(OC[C@@]56CCCN5C[C@H](F)C6)nc4c3F)c12 [Compound 150] with its measured IC50.
# output 100 to 1000 nM

# input Annotate the molecule N#Cc1c(N)sc2c(F)ccc(-c3c(C(F)(F)F)cc4c(N5CC[C@@H](O)C5)nc(OC[C@@]56CCCN5C[C@H](F)C6)nc4c3F)c12 [Compound 126] with its measured IC50.
# output 100 to 1000 nM

# input Annotate the molecule CN(c1nc(OC[C@@]23CCCN2C[C@H](F)C3)nc2c(F)c(-c3ccc(F)c4sc(N)c(C#N)c34)c(C(F)(F)F)cc12)[C@H]1CCS(=O)(=O)C1 [Compound 94] with its measured IC50.
# output 100 to 1000 nM

# input Annotate the molecule CC(=O)NC1CN(c2nc(OC[C@@]34CCCN3C[C@H](F)C4)nc3c(F)c(-c4ccc(F)c5sc(N)c(C#N)c45)c(C(F)(F)F)cc23)C1 [Compound 88] with its measured IC50.
# output 100 to 1000 nM

# input Annotate the molecule N#Cc1c(N)sc2c(F)ccc(-c3c(C(F)(F)F)cc4c(N5CCCC(O)CC5)nc(OC[C@@]56CCCN5C[C@H](F)C6)nc4c3F)c12 (some centres unmarked) [Compound 267] with its measured IC50.
# output 100 to 1000 nM

# input Annotate the molecule N#Cc1c(N)sc2c(F)ccc(-c3c(C(F)(F)F)cc4c(N5CCOCC5)nc(OC[C@@]56CCCN5C[C@H](F)C6)nc4c3F)c12 [Compound 90] with its measured IC50.
# output 100 to 1000 nM

# input Annotate the molecule CC(=O)N1CC[C@@H](N(C)c2nc(OC[C@@]34CCCN3C[C@H](F)C4)nc3c(F)c(-c4ccc(F)c5sc(N)c(C#N)c45)c(C(F)(F)F)cc23)[C@H]1C (single isomer, unassigned) [Compound 192] with its measured IC50.
# output > 10000 nM

# input Annotate the molecule C[C@H](CO)N(C)c1nc(OC[C@@]23CCCN2C[C@H](F)C3)nc2c(F)c(-c3ccc(F)c4sc(N)c(C#N)c34)c(C(F)(F)F)cc12 [Compound 76] with its measured IC50.
# output 100 to 1000 nM

# input Annotate the molecule CC(=O)N1CC[C@@H](N(C)c2nc(OC[C@@]34CCCN3C[C@H](F)C4)nc3c(F)c(-c4ccc(F)c5sc(N)c(C#N)c45)c(C(F)(F)F)cc23)C1 [Compound 112] with its measured IC50.
# output 100 to 1000 nM

# input Annotate the molecule C[C@@H]1COC[C@H](C)N1c1nc(OC[C@@]23CCCN2C[C@H](F)C3)nc2c(F)c(-c3ccc(F)c4sc(N)c(C#N)c34)c(C(F)(F)F)cc12 [Compound 201] with its measured IC50.
# output 100 to 1000 nM
